Items are presented alongside their recorded binding affinity fold change relative to RBD WT.
# subjectOfTest: A475V
measuredEndpoint: binding affinity fold change relative to RBD WT (fold)

- binder: "Nb34 (VHH) VHH: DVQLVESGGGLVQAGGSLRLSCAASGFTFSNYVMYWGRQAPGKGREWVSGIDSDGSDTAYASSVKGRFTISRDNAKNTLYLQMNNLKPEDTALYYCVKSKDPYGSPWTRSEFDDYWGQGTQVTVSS"
  value: -1
- binder: "Nb105 (VHH) VHH: HVQLVESGGGLVQAGGSLRLSCAVSGRTFSTYGMAWFRQAPGKERDFVATITRSGETTLYADSVKGRFTISRDNAKNTVYLQMNSLKIEDTAVYYCAVRRDSSWGYSRDLFEYDYWGQGTQVTVSS"
  value: -1.1
- binder: "Nb95 (VHH) VHH: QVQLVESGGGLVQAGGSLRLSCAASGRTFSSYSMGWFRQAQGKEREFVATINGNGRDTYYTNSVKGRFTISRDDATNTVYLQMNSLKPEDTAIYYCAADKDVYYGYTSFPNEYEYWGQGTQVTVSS"
  value: 1.21
- binder: "Nb36 (VHH) VHH: HVQLVESGGGLVQAGGSLTLTCAASGRTFSSETMDMGWFRQAPGKEREFVAADSWNDGSTYYADSVKGRFTISRDSAKNTLYLQMNSLKPEDTAVYYCAAETYSIYEKDDSWGYWGQGTQVTVSS"
  value: -1.13
